# MEASURED ON: Neuropeptide S receptor (Homo sapiens)
# ASSAY METHOD TEXT: Confirmation Concentration-Response Assay for Antagonists of the Neuropeptide S Receptor: cAMP Signal Transduction
# STUDY CONDITIONS: CHO-NPSR cells, cAMP TR-FRET, antagonist mode; series mostly up to 22.3 µM
Records with an inconclusive call do not appear. The source made the active and inactive calls. The call rests on the fitted dose curve; in most records, active means well fitted inhibition curve with a large enough effect in the main read-out, with a control signal flat; inconclusive means small, poorly fitted or top-dose-only effect, or a change in a side signal; inactive means flat fitted curve, though single readings scatter.
Select the correct class. Options are active, inactive and nothing else.

Please share the test call associated with Cc1c(P(=S)(c2ccccc2)c2ccccc2)[n+]2ccccc2n1C .
active

Please share the test call associated with CN(C)C(=S)SSC(=S)N(C)C .
inactive

Please share the test call associated with Cc1cc(C=C2C(=O)NC(=S)NC2=O)c(C)n1-c1ccc2c(c1)OCO2 .
active

Please share the test call associated with C=CCN1C(=O)/C(=C/c2cccs2)C(=O)NC1=S .
active

Please share the test call associated with CCOC(=O)c1c(-n2c(C)cc(C=C3C(=O)NC(=S)NC3=O)c2C)sc2c1CCCC2 .
active

Please share the test call associated with C=C1C(=O)O[C@@H]2C[C@@H](C)[C@@H]3C=CC(=O)[C@@]3(C)[C@@H](OC(=O)CC(=O)O[C@H]3[C@@H]4C(=C)C(=O)O[C@@H]4C[C@@H](C)[C@@H]4C=CC(=O)[C@]43C)[C@H]12 .
active

Please share the test call associated with Cn1ncnc2c(=O)n(C)c(=O)nc1-2 .
inactive
